Where do these numbers come from? They come from paper PMC6273978.

# Test system: S. aureus
# test description: Oxford cup assay, zone of inhibition
# Assay type: cell-based
# measurement setup: Staphylococcus aureus; 320 µg/mL
Where a name gives a salt, the structure may show the parent alone.
Measured zone of inhibition at 320 µg/mL accompanies every entry in the list below.
# number only, unit mm dropped from output

C=C[C@]1(C)C[C@@H](OC(=O)CSc2nc3ccc(NC(=O)c4cc5ccccc5[nH]4)cc3[nH]2)[C@]2(C)[C@H](C)CC[C@]3(CCC(=O)[C@H]32)[C@@H](C)[C@@H]1O; 24.7
C=C[C@]1(C)C[C@@H](OC(=O)CSc2nc3ccc(NC(=O)c4ccccc4OC)cc3[nH]2)[C@]2(C)[C@H](C)CC[C@]3(CCC(=O)[C@H]32)[C@@H](C)[C@@H]1O; 18.3
C=C[C@]1(C)C[C@@H](OC(=O)CSc2nc3ccc(N)cc3[nH]2)[C@]2(C)[C@H](C)CC[C@]3(CCC(=O)[C@H]32)[C@@H](C)[C@@H]1O; 29.6
C=C[C@]1(C)C[C@@H](OC(=O)CSc2nc3ccc(NC(=O)c4cccc(OC)c4)cc3[nH]2)[C@]2(C)[C@H](C)CC[C@]3(CCC(=O)[C@H]32)[C@@H](C)[C@@H]1O; 18.7
C=C[C@]1(C)C[C@@H](OC(=O)CSc2nc3ccc(NC(=O)c4ccccc4Cl)cc3[nH]2)[C@]2(C)[C@H](C)CC[C@]3(CCC(=O)[C@H]32)[C@@H](C)[C@@H]1O; 12.4
C=C[C@]1(C)C[C@@H](OC(=O)CSc2nc3ccc(NC(=O)C4CCCCC4)cc3[nH]2)[C@]2(C)[C@H](C)CC[C@]3(CCC(=O)[C@H]32)[C@@H](C)[C@@H]1O; 27.2
C=C[C@]1(C)C[C@@H](OC(=O)CSc2nc3ccc(NC(=O)c4cccc(Cl)c4)cc3[nH]2)[C@]2(C)[C@H](C)CC[C@]3(CCC(=O)[C@H]32)[C@@H](C)[C@@H]1O; 15.8
C=C[C@]1(C)C[C@@H](OC(=O)CSc2nc3ccc(NC(=O)c4ccc(Cl)cc4)cc3[nH]2)[C@]2(C)[C@H](C)CC[C@]3(CCC(=O)[C@H]32)[C@@H](C)[C@@H]1O; 16.5

Data request: Return reported zone of inhibition at 320 µg/mL. Input compound: C=C[C@]1(C)C[C@@H](OC(=O)CSc2nc3ccc(NC(=O)c4ccc(OC)cc4)cc3[nH]2)[C@]2(C)[C@H](C)CC[C@]3(CCC(=O)[C@H]32)[C@@H](C)[C@@H]1O
Data returned: 21.5

Data request: Find the measured zone of inhibition at 320 µg/mL of C=C[C@]1(C)C[C@@H](OC(=O)CSc2nc3ccc(NC(=O)c4ccccc4C)cc3[nH]2)[C@]2(C)[C@H](C)CC[C@]3(CCC(=O)[C@H]32)[C@@H](C)[C@@H]1O and report it.
Data returned: 17.8

Data request: Entry C=C[C@]1(C)C[C@@H](OC(=O)CSCCN(CC)CC)[C@]2(C)[C@H](C)CC[C@]3(CCC(=O)[C@H]32)[C@@H](C)[C@@H]1O [Tiamulin, tiamulin fumarate, reference compound] needs its zone of inhibition at 320 µg/mL filled in; supply it.
Data returned: 28.2

----------
# Tested on: S. vitulinus
# test description: Oxford cup assay, zone of inhibition
# Format: cell-based, Staphylococcus vitulinus
# measurement setup: Mammaliicoccus vitulinus; 160 µg/mL
# Experimental: The Oxford cup assays were carried out to evaluate the antibacterial activities against the above-mentioned six bacterial strains. The zones of inhibition for two concentrations (320 and 160 μg/mL) of the synthetic compounds and tiamulin fumarate were measured. […] The procedure for Oxford cup assays was the same as that previously reported. […] The zone of inhibition for each concentration was measured after a 24–36 h incubation at 37 °C. […]
Give t when the value for zone of inhibition at 160 µg/mL is at least 20 mm. Give f when it is less.

Consider the worked cases shown below.
C=C[C@]1(C)C[C@@H](OC(=O)CSc2nc3ccc(NC(=O)c4ccccc4Cl)cc3[nH]2)[C@]2(C)[C@H](C)CC[C@]3(CCC(=O)[C@H]32)[C@@H](C)[C@@H]1O [Compound 4a]; f
C=C[C@]1(C)C[C@@H](OC(=O)CSc2nc3ccc(NC(=O)c4ccc[nH]4)cc3[nH]2)[C@]2(C)[C@H](C)CC[C@]3(CCC(=O)[C@H]32)[C@@H](C)[C@@H]1O [Compound 4k]; t
C=C[C@]1(C)C[C@@H](OC(=O)CSc2nc3ccc(NC(=O)c4cccc(C)c4)cc3[nH]2)[C@]2(C)[C@H](C)CC[C@]3(CCC(=O)[C@H]32)[C@@H](C)[C@@H]1O [Compound 4e]; f

Data request: Would you say C=C[C@]1(C)C[C@@H](OC(=O)CSc2nc3ccc(NC(=O)c4ccccc4C)cc3[nH]2)[C@]2(C)[C@H](C)CC[C@]3(CCC(=O)[C@H]32)[C@@H](C)[C@@H]1O [Compound 4d] shows zone of inhibition at 160 µg/mL at minimum 20 mm?
Data returned: f
